biological target: GAβ-dependent amyloid fibril formation (Human Aβ1-40 + GM1-containing liposome) (Homo sapiens); construct: Human Aβ1-40 (cat. #4307-v, prepared by Peptide Institute); purchased Peptide Institute 4307-v; assay: Thioflavin T (ThT) assay of GAβ-dependent amyloid fibril formation (Aβ1-40 with GM1-containing liposome); type: biochemical; conditions: inhibition rate against amyloid fibril formation, final concentration of the compound 25 μM; read-out: Inhibitory activity ABC evaluation
Sequence (P05067 672-711 limits assumed): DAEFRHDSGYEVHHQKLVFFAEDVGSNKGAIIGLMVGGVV
I'd be grateful if you could share measured inhibition at 25 µM for these entries.

molecule: O=C(N[C@@H](CO)c1nc(-c2ccccc2C(F)(F)F)no1)c1ccccc1 [Compound 189]
inhibition at 25 µM: 40 to 80%
--
molecule: O=C(N[C@@H](CO)c1nnc(-c2ccc(O)c(F)c2)o1)c1ccc(Cl)cc1 [Compound 120]
inhibition at 25 µM: < 40%
--
molecule: O=C(N[C@@H](CO)c1nc(-c2ccc(-n3cccn3)cc2)no1)c1ccccc1 [Compound 180]
inhibition at 25 µM: < 40%
--
molecule: O=C(NC(CO)c1nc(-c2ccc(O)cc2)no1)c1ccc(Cl)cc1 (centres unmarked) [Compound 78]
inhibition at 25 µM: > 80%
--
molecule: O=C(N[C@@H](CO)c1nc(-c2ccccc2C(F)(F)F)no1)c1ccc(F)cc1 [Compound 181]
inhibition at 25 µM: 40 to 80%

Report inhibition at 25 µM for every entry below.
1. O=C(N[C@@H](CO)c1nc(-c2cc(C(F)(F)F)cc(C(F)(F)F)c2)no1)c1ccc(F)cc1 [Compound 215]
2. O=C(N[C@@H](CO)c1nc(-c2ccc(C(F)(F)F)cc2)no1)C1CNc2ccccc2O1 (some centres unmarked) [Compound 192]
3. O=C(N[C@@H](CO)c1nc(-c2ccc(C(F)(F)F)cc2)no1)c1ccc2[nH]nnc2c1 [Compound 238]
4. O=C(N[C@@H](CO)c1nc(-c2cc3ccccc3[nH]2)no1)c1ccc(F)cc1 [Compound 266]
5. NCC(NC(=O)c1ccc(Cl)cc1)c1nnc(-c2ccc(OC(F)(F)F)cc2)o1 (centres unmarked) [Compound 116]
6. COc1ccc(-c2nnc([C@H](CO)NC(=O)c3ccc(Cl)cc3)o2)cc1F [Compound 113]
7. O=C(N[C@@H](CO)c1nc(-c2csc(Cl)c2)no1)c1ccc(F)cc1 [Compound 227]
8. O=C(N[C@@H](CO)c1nc(-c2ccc3c(C(=O)C(F)(F)F)c[nH]c3c2)no1)c1ccc(F)cc1 [Compound 256]

Result block:
["40 to 80%", "> 80%", "40 to 80%", "> 80%", "> 80%", "< 40%", "40 to 80%", "40 to 80%"]
